Tested on: Pasteurella multocida
test summary: Effective dose required to inhibit Pasteurella multocida infection model in mouse by subcutaneous administration
Assay type: functional
condition description: Pasteurella multocida, sc; read-out: ED50

| smiles structure | unit text | ED50 |
| --- | --- | --- |
| CC[C@H]1OC(=O)[C@H](C)[C@@H](O[C@H]2C[C@@](C)(OC)[C@@](O)(CSCCO)[C@H](C)O2)[C@H](C)[C@@H](O[C@@H]2O[C@H](C)C[C@H](N(C)C)[C@H]2O)[C@](C)(O)C[C@@H](C)CN[C@H](C)[C@@H](O)[C@]1(C)O | mg/kg | 51 |
| CCCCNC[C@]1(O)[C@H](C)O[C@@H](O[C@H]2[C@H](C)[C@@H](O[C@@H]3O[C@H](C)C[C@H](N(C)C)[C@H]3O)[C@](C)(O)C[C@@H](C)CN[C@H](C)[C@@H](O)[C@](C)(O)[C@@H](CC)OC(=O)[C@@H]2C)C[C@@]1(C)OC | mg/kg | 17 |
| CC[C@H]1OC(=O)[C@H](C)[C@@H](O[C@H]2C[C@@](C)(OC)[C@](O)(CNC(C)(C)C)[C@H](C)O2)[C@H](C)[C@@H](O[C@@H]2O[C@H](C)C[C@H](N(C)C)[C@H]2O)[C@](C)(O)C[C@@H](C)CN[C@H](C)[C@@H](O)[C@]1(C)O | mg/kg | 9.6 |
| CC[C@H]1OC(=O)[C@H](C)[C@@H](O[C@H]2C[C@@](C)(OC)[C@@](O)(CNCCOC)[C@H](C)O2)[C@H](C)[C@@H](O[C@@H]2O[C@H](C)C[C@H](N(C)C)[C@H]2O)[C@](C)(O)C[C@@H](C)CN[C@H](C)[C@@H](O)[C@]1(C)O | mg/kg | 9.5 |
